study-system: TDP1 (Homo sapiens)
property-label: IC50

**Q:** # input molecule: O=C(O)c1ccc(Cn2c(-c3ccccc3)cc3ccccc32)cc1 [Compound 9b] ; wanted: its IC50
**A:** > 100 µM

**Q:** # input molecule: O=C(O)c1ccc(Cn2c(-c3ccccc3)nc3ccccc32)cc1 [Compound 9a] ; wanted: its IC50
**A:** > 100 µM

**Q:** # input molecule: O=C(O)c1ccc(Nc2c(-c3ccc(C(=O)O)cc3)nc3ccccn23)cc1 [Compound 8h] ; wanted: its IC50
**A:** > 100 µM

###

pIC50: recorded values
study-system: TDP1 (Homo sapiens, UniProt Q9NUW8)
Sequence (Q9NUW8 whole entry): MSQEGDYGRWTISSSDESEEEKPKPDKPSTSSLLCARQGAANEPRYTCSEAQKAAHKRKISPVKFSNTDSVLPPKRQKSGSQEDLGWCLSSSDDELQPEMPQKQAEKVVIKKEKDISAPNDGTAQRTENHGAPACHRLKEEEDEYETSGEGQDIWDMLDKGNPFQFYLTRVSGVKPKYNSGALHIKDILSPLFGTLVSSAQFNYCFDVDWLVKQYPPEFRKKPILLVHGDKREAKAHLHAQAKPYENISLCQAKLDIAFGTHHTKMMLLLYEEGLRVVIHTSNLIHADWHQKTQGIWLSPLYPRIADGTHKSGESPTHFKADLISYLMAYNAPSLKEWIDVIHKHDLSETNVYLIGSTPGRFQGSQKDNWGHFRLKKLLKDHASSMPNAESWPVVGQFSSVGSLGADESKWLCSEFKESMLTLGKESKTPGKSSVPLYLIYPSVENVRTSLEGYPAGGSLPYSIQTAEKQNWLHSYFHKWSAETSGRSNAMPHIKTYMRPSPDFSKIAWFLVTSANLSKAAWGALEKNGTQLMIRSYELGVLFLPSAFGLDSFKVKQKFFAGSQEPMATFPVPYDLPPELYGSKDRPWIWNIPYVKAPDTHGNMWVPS
method-description: TDP1 gel-based in vitro assay
Assay type: biochemical
particulars: Table 1 and main text
Scale note: pIC50 = -log10(concentration in M).

1) CS(=O)(=O)c1ccc2nc(-c3ccc(-c4ccccc4)cc3)c(Nc3ccc(C(=O)O)cc3)n2c1
5.00

Okay, now this molecule:
**Q:** Form field: pIC50 recorded for CS(=O)(=O)c1ccc2nc(-c3ccccc3)c(Nc3ccc(C(=O)O)cc3)n2c1 with TDP1 (Homo sapiens, UniProt Q9NUW8) (enter value)
**A:** 5.74

The measurements presented in this section are drawn from paper PMC8179437.
